target: human ether-à-go-go-related gene (hERG) potassium channel (human);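 note: peak tail current of the secondary pulse compared with the same well before compound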
experiment-description: primary screen, population patch clamp on CHO cells stably expressing hERG; higher = less effect of the substance
In all, about 310,000 compounds went through this assay and about 14,000 (4.5%) showed an effect of 50% or more. The effect is printed as a negative number. The list comes from a sample in which strong results are over-represented; it also holds close analogues and randomly drawn compounds.
# hERG current change (%, negative = inhibition) at 10uM listing for each entry below
result-type: hERG current change (%, negative = inhibition) at 10uM (%)

* O=C(NCc1ncc(C(F)(F)F)cc1Cl)Nc1ccccc1 | 3.57
* CCn1c(SCc2ccc(C(=O)Nc3cc(C)cc(C)c3)cc2)nnc1-c1ccncc1 | -59.2
* C=CCn1c(SCc2cccc(OC)c2)nnc1-c1ccncc1 | -15.5
* Cc1ccc(NC(=O)Cn2cc(C=O)c3ccccc32)cc1 | 17.5
* CCOC(=O)C(NC(=O)Nc1cccc(C)n1)(OCC(F)(F)F)C(F)(F)F (stereo not drawn) | 5.06
* CS(=O)(=O)N(CC(=O)N1CCN(Cc2ccccc2)CC1)c1ccccc1F | -5.93
* Cc1cc(CNC(=O)CCc2nnc(CCCCc3ccccc3)o2)nn1C | 38.1
* O=C(CN1CCCCC1)N1N=C(c2cccs2)CC1c1cccs1 (stereo not drawn) | -58.7
* CC(CN1CCC(n2nccc2NC(=O)C2CCCC2)CC1)c1ccccc1 (stereo not drawn) | -24
* CCC(=O)N1N=C(c2cccs2)CC1c1ccc(OC)cc1 (stereo not drawn) | 15.9
* CCNc1nc(NCC)nc(SCCOc2ccc(C)cc2)n1 | -40.6
* CC(C)CCN1CCC(n2nccc2NC(=O)C2CCOC2)CC1 (stereo not drawn) | 15.3
* CCOC(=O)CSc1nnc(-c2cccc(Cl)c2)n1CC | -3.47
* CCn1c(SCc2cccc(F)c2)nnc1-c1ccncc1 | -8.82
* CCn1c(SCc2ccc(Cl)cc2)nnc1-c1ccccc1 | -44.4
* Cc1ccc(C(=O)Nc2cccnc2N2CCN(C)CC2)cc1 | -5.47
* CCc1cc(CNC(=O)CC2C(=O)NCCN2Cc2ccccc2C(F)(F)F)on1 (stereo not drawn) | 10
* C=CCn1c(SCc2ccc(OC)cc2)nnc1-c1cccnc1 | -26.9
* CC1(c2nnc(Cc3ccccc3)o2)CC(c2ccccc2F)=NO1 (stereo not drawn) | -12.6
* CC(C)c1nnc(NC(=O)c2cnccn2)s1 | 16.2
* O=C(Nc1ncc2c(n1)CC(c1cccc(Cl)c1)CC2=O)c1ccco1 (stereo not drawn) | -39
* CCn1c(SCc2ccc(C#N)cc2)nnc1-c1cccc(Cl)c1 | -73.6
* O=C(Nc1ncc2c(n1)CC(c1ccccc1)CC2=O)c1ccco1 (stereo not drawn) | -21.9
* Nc1nc2n(n1)C(c1ccccc1)CC(c1ccc(F)cc1)N2 (stereo not drawn) | -10.1
* COc1ccc(NC(=O)Cn2c(=O)c(C)nc3ccccc32)cc1Cl | -2.07
* Cc1nc(C(=O)Nc2ccccc2Cl)cc2c1[nH]c1ccccc12 | 0.837
* Cc1ncc2c(c1OC(=O)c1ccc([N+](=O)[O-])cc1)COC(C)(C)OC2 | -65.8
* CCOc1cc(/C=C/c2ccc3cccc([N+](=O)[O-])c3n2)ccc1OCC(=O)N(C)C | -33.4
* COc1ccc(C2CC(c3ccc(F)cc3)Nc3nc(N)nn32)cc1 (stereo not drawn) | -27
* COc1ccc(-c2cc(N)n(CCC#N)n2)c(OC)c1 | 4.12

----------
target: human ether-à-go-go-related gene (hERG) potassium channel (human);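 note: peak tail current of the secondary pulse compared with the same well before compound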
experiment-description: primary screen, population patch clamp on CHO cells stably expressing hERG; higher = less effect of the substance
In all, about 310,000 compounds went through this assay and about 14,000 (4.5%) showed an effect of 50% or more. Effects have a minus sign here. The entries come from a sample that favours strong results as a whole.
result-type: hERG current change (%, negative = inhibition) at 10uM (%)

* CCOc1ccc(NC(=O)CN(C)C(=O)CCCc2c[nH]c3ccccc23)cc1OCC | -3.25
* CCC1=C(OC(=O)N(CC)CC)N2C(=O)OC(=NCc3ccccc3)[C@]2(C)[C@H]2C1=CC[C@H]1C(=O)NC(=O)[C@H]12 | -6.14
* Cc1cc(S(=O)(=O)Nc2ccc(C(=O)NCC(c3ccco3)N3CCCC3)cc2)ccc1F (stereo not drawn) | -50.6
* Cc1ccc(S(=O)(=O)NC2CC3CCC2C3)cc1 (stereo not drawn) | -1.07
* CCOC(=O)c1c(C)[nH]c(N=Nc2ccc(OC)cc2)c1C | -0.496
* COC(=O)c1cc(OC)c(OC)cc1NC(=O)Cc1cccs1 | 0.709
* COc1ccc(C(=O)NC2CCN(CC(=O)Nc3c(C)cccc3C)CC2)cc1OC | 18.7
* C/C=C(\C)CN1CCC(Oc2cc(C(=O)NC3CC3)ccc2OC)CC1 | -64.5
* CC(=O)N1c2ccc(S(=O)(=O)N3CCC(C(=O)NCc4ccc(N(C)C)cc4)CC3)cc2CC1C (stereo not drawn) | 18.8
* O=C(c1ccc(S(=O)(=O)Nc2ccc(F)cc2)cc1)N1CCN(C(=O)c2ccco2)CC1 | -29.4
* CC1=NCCc2c1[nH]c1ccccc21 | -22.7
* CCCC/C=C1\CCc2c([nH]c3ccccc23)C1=O | 10.1
* CCCOc1ccc(C(=O)N2CCN(c3ccc(NC(=O)CC)cc3Cl)CC2)cc1 | -77
* Cc1cc(C(=O)N/N=C/c2ccc(-c3cccc(Cl)c3)o2)n[nH]1 | 11.3
* Cc1cc(C)cc(Nc2cnn(C34CC5CC(CC(CC(=O)O)(C5)C3)C4)c(=O)c2Cl)c1 | 5.39
* O=C(Nc1ccc(N2CCOCC2)c(Cl)c1)c1cccc(F)c1 | -21.2
* CC(=O)c1ccc(-c2ccccc2OC(F)(F)F)o1 | -10.7
* Cc1ccc(OCCCC(=O)NCc2ccco2)c(C)c1 | 0.0372
* COc1ccc(S(N)(=O)=O)cc1C(=O)NCC(C)(C)N1CCCCC1 | -15.2
* CC(C)c1ccc(NC(=O)CN2C(=O)NC3(CCCC3)C2=O)cc1 | 5.63
* CC1CCc2ccc(F)cc2N1S(=O)(=O)c1cccs1 (stereo not drawn) | 2.36
* O=C(C1CCN(S(=O)(=O)c2ccc(Cl)cc2)CC1)N1CCN(c2ccccn2)CC1 | -64.7
* Cc1c(C)n2c(SCC(=O)NC3CCCCC3)nnc2[nH]c1=O | -8.13
* COc1cc(C(=O)NC2CCN(Cc3nnnn3Cc3ccc(F)cc3)CC2)cc(OC)c1OC | -0.888
* COc1cc(OC)cc(C(=O)NC2CCN(Cc3nnnn3Cc3ccc(F)cc3)CC2)c1 | -3.98
* CC1CCN(S(=O)(=O)c2ccc(NC(=O)C3CSC4(C)CCC(=O)N34)cc2)CC1 (stereo not drawn) | -6.34
* N=c1c(C(=O)NC2CCCC2)cc2c(=O)n3ccccc3nc2n1CCCN1CCOCC1 | -78.2
* Cc1ccc2[nH]cc(CCNS(=O)(=O)c3ccc(F)cc3)c2c1 | -4.39
* O=C(CSc1nc2[nH]ncc2c(=O)[nH]1)Nc1ccc(Cl)c(Cl)c1 | 6.06
* CNC(=O)c1ccc(N(Cc2ccccc2C)S(C)(=O)=O)cc1 | -6
* Cc1ccc(S(=O)(=O)N2CCC(C(=O)N3CCN(c4ccccn4)CC3)CC2)cc1 | -19.4
* COc1cc(C(=O)NC2CCCCC2)ccc1OC1CCN(C(C)=O)CC1 | 7.63
* CCCCCCCCC1=NCCc2c1[nH]c1ccccc21.Cl | -79.2

----------
target: human ether-à-go-go-related gene (hERG) potassium channel (human);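 note: peak tail current of the secondary pulse compared with the same well before compound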
experiment-description: primary screen, population patch clamp on CHO cells stably expressing hERG; higher = less effect of the substance
In all, about 310,000 compounds went through this assay and about 14,000 (4.5%) showed an effect of 50% or more. Effects have a minus sign here. This excerpt belongs to a sample that is enriched for strong results.
Could you label it YES if measured hERG current change (%, negative = inhibition) at 10uM is -30% or higher, and NO otherwise?

• CCCS(=O)(=O)c1c(S(=O)(=O)CCC)c2cc(-c3ccncc3)ccn2c1C(=O)OC = NO
• Cc1cc(/C=C(/C#N)C(=O)O)c(C)n1-c1cccc2ccccc12 = YES
• CCCCCN=CC1=C(O)CC(c2ccccc2)CC1=O (centres unmarked) = YES
• CN(Cc1nc(-c2cccs2)no1)CC1COCCO1 (centres unmarked) = YES
• O=C(C1CCC(=O)N(C2CC2)C1)N1CCN(c2ccc(Cl)cc2)CC1 (centres unmarked) = NO
• O=C1CCC(C(=O)N2CCN(c3ccccc3)CC2)CN1CC1CCCCC1 (centres unmarked) = YES
• COc1cccc(CN2CC(C(=O)N3CCN(c4ccc(Cl)cc4)CC3)CCC2=O)c1 (centres unmarked) = NO

----------
target: human ether-à-go-go-related gene (hERG) potassium channel (human, UniProt Q12809);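 note: peak tail current of the secondary pulse compared with the same well before compound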
Sequence (Q12809 whole entry, looked up): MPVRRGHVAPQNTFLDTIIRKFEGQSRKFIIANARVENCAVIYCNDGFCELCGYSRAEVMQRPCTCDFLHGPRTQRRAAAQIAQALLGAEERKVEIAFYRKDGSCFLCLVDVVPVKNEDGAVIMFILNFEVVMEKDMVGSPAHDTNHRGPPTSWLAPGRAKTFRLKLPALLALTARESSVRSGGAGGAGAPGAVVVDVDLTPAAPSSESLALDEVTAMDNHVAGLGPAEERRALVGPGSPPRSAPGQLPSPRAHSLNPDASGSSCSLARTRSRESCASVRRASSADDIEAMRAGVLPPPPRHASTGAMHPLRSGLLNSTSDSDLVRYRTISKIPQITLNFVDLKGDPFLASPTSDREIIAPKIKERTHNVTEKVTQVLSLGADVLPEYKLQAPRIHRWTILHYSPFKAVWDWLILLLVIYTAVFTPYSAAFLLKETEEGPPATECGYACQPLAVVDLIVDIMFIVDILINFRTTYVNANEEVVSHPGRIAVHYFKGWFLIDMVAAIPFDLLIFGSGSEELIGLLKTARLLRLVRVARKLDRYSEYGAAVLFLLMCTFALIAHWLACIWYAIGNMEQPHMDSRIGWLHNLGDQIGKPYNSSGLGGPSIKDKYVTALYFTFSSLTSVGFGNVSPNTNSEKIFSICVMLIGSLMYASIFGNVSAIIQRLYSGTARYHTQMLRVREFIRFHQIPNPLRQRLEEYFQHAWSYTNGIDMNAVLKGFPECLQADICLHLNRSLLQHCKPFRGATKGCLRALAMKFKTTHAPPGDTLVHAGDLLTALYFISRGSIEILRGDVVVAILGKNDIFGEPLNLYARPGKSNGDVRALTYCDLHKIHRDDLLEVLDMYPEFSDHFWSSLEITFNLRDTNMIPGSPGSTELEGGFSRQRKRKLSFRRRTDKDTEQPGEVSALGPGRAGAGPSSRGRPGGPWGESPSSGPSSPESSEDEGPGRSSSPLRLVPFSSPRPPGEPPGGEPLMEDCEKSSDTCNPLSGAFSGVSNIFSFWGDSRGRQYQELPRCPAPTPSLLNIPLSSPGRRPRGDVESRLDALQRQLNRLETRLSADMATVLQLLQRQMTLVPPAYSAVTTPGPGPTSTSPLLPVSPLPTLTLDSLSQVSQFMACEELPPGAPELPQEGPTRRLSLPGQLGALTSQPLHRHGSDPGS
experiment-description: primary screen, population patch clamp on CHO cells stably expressing hERG; higher = less effect of the substance
Among all 310,000 compounds or so, about 14,000 (4.5%) showed an effect of 50% or more. Effects have a minus sign here. Shown is part of a subset that was picked to be rich in strong results.
Item-by-item account of hERG current change (%, negative = inhibition) at 10uM
result-type: hERG current change (%, negative = inhibition) at 10uM (%)

• COc1ccc(C2(O)CN(c3ccccc3)C3=[N+]2CCS3)cc1OC.[Br-] (stereo not drawn) = 1.7
• Cc1noc(C)c1C(=O)Nc1nc(-c2cccs2)cs1 = -56.9
• Cc1ccccc1N1CC(O)(c2ccccc2)[N+]2=C1SCC2.[Br-] (stereo not drawn) = -19.5
• COc1ccc(OC)c(N2CC(O)(c3cccs3)[N+]3=C2SCCC3)c1.[Br-] (stereo not drawn) = -50.5
• N#C/C(=C\c1c(N2CCOCC2)nc2ccccn2c1=O)S(=O)(=O)c1ccccc1 = -63.2
• Br.CC1(C(=O)CSc2nc3ccccc3s2)CCC(=O)O1 (stereo not drawn) = -2.67
• Cc1ccc(C)c(N2CC(O)(c3cccs3)[N+]3=C2CCCC3)c1.[Br-] (stereo not drawn) = -23
• CCc1noc(C)c1C(=O)Nc1nc(-c2cccs2)cs1 = -57
• COc1ccc(NC(=O)CSc2nnc(-c3cccs3)n2Cc2ccco2)cc1OC = -60.6
• C/C(CC(=O)Nc1ccc2ccccc2c1)=N\NC(=O)c1ccc(O)c(O)c1 = -6.73
• C=CCc1ccc(OCCOCCOc2cccc3ccc(C)nc23)c(OC)c1.O=C(O)C(=O)O = -61.6
• N#C/C(=C\c1c(N2CCN(c3ccccc3)CC2)nc2ccccn2c1=O)S(=O)(=O)c1ccccc1 = 2.28
